tested_on: T1, human MSLN-R2-his protein (human, UniProt Q13421 391-486)
T1 construct: it is put last here; also called human MSLN-R2 protein; hMSLN-R2-his; not shown: His tag
assay_summary: ELISA on coated antigen, antibody 0.002 nM
OD450 values by entry
The answer is to be given in OD; state only the numeric part.

Qu. Fill in the blank: the reported OD450 of S009-F7.65.13 (antibody, human IgG1, kappa, V domains shown, Human-murine chimeric antibody, human IgG1 heavy and kappa light constant regions) VH: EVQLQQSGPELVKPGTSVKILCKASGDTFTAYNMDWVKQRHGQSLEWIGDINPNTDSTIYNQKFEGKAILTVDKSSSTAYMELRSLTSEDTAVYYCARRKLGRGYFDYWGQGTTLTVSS VL: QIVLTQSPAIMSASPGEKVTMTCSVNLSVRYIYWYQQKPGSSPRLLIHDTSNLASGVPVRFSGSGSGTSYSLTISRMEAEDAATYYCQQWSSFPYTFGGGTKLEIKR is ____.
Ans. 0.05

Qu. What about this binder? S009-F7.2.3 (antibody, human IgG1, kappa, V domains shown, Human-murine chimeric antibody, human IgG1 heavy and kappa light constant regions) VH: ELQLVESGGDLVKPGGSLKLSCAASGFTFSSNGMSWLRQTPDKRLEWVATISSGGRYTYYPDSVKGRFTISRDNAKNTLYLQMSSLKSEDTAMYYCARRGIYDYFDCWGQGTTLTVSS VL: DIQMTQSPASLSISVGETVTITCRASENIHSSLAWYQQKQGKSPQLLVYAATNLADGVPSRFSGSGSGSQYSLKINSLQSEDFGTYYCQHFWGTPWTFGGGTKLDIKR
Ans. 0.41

Qu. Now give it for S009-F7.11.11 (antibody, human IgG1, kappa, V domains shown, Human-murine chimeric antibody, human IgG1 heavy and kappa light constant regions) VH: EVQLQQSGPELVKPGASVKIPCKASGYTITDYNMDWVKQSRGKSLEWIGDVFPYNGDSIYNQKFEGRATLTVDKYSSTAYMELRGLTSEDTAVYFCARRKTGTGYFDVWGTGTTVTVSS VL: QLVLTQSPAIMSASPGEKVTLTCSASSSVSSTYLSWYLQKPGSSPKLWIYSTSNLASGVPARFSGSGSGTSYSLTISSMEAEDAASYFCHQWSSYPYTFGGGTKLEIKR too.
Ans. 0.05

Qu. How about this binder: S009-F7.25.19 (antibody, human IgG1, kappa, V domains shown, Human-murine chimeric antibody, human IgG1 heavy and kappa light constant regions) VH: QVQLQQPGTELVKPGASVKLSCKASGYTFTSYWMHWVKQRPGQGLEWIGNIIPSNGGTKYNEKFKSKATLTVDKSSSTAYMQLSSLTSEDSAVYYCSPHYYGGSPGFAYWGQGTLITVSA VL: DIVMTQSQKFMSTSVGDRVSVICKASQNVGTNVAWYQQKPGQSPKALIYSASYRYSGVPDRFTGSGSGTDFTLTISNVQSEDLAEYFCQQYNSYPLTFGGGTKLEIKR
Ans. 0.05

Qu. // next record S009-F7.53.2 (antibody, human IgG1, kappa, V domains shown, Human-murine chimeric antibody, human IgG1 heavy and kappa light constant regions) VH: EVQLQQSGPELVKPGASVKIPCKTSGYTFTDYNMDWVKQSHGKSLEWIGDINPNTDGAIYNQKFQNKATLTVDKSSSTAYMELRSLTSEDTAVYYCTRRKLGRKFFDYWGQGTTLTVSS VL: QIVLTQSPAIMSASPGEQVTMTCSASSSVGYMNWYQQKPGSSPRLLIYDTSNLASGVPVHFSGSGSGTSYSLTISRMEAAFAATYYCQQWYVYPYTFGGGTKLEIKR
Ans. 0.05
